- assayed target: T1, human NMI (N-myc Interacting protein), recombinant protein (human, UniProt Q13287 1-307, limits assumed)
- T1 construct: Gene ID: 9111; also called hNMI; antigen
- T1 sequence (looked up): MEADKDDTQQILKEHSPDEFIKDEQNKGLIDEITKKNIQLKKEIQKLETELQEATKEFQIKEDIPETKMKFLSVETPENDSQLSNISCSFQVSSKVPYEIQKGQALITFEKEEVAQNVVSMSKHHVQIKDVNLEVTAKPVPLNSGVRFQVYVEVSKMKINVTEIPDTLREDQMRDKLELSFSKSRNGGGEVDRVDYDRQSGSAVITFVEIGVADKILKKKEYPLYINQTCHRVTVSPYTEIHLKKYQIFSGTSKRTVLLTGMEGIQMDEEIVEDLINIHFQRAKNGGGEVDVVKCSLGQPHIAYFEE
- assay method text: ELISA EC50 against parent 98G10
The binders listed here are annotated with their Fold decrease in affinity.

binder	Fold decrease in affinity
98G10 mutant S57K (VH) (antibody, V domains shown) VH: QEQLEESGGDLVKPEGSLTLTCTASGFSFSASYWICWVRQAPGKGLEWIACIYGGSKGSAYYASWAKGRFTISKTSSTTVTLQMTSLTAADTATYFCARAGYYNYGSAGDIYPSSFKLWGPGTLVTVSS VL: DIVMTQTPASVEAAVGGTVTINCQASQSISTALAWYQQKPGQPPKLLIYTASKVASGVPSRFSGSGSGTQFTLTISDLECADAATYYCQNYYYSSSSITFGGGTEVVVK	> 500 fold
98G10 mutant S57Q (VH) (antibody, V domains shown) VH: QEQLEESGGDLVKPEGSLTLTCTASGFSFSASYWICWVRQAPGKGLEWIACIYGGSQGSAYYASWAKGRFTISKTSSTTVTLQMTSLTAADTATYFCARAGYYNYGSAGDIYPSSFKLWGPGTLVTVSS VL: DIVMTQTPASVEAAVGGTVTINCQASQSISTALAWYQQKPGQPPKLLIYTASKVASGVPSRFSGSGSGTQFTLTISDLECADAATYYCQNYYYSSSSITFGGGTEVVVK	> 500 fold
98G10 mutant G55H (VH) (antibody, V domains shown) VH: QEQLEESGGDLVKPEGSLTLTCTASGFSFSASYWICWVRQAPGKGLEWIACIYGHSSGSAYYASWAKGRFTISKTSSTTVTLQMTSLTAADTATYFCARAGYYNYGSAGDIYPSSFKLWGPGTLVTVSS VL: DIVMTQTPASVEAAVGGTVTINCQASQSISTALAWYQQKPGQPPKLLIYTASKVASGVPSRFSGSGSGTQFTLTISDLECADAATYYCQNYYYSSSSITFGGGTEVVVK	> 100 fold
